tested-system: human IKK-β (Homo sapiens)
Construct: A cDNA fragment encoding human IKK-β open reading frame was generated by PCR; His; made in house; host or cells: Sf21 insect cells (baculovirus); the GST-IκBα substrate was made in E. coli
test-description: IKK-β kinase inhibitory assay
Format: biochemical
condition-details: compounds of about 40 to 90% purity, read-out: In vitro activity grade (invitro, IC50)
Counter-ions that a name gives are not always drawn.
observable: IC50

[
  {
    "compound": "N#Cc1c(-c2cccc(NC(=O)CNCCCO)c2)cc(-c2ccccc2O)nc1N",
    "tested-system": "human IKK-β (Homo sapiens)",
    "IC50": "< 500 nM"
  }
]

Please give the documented IC50 of CN(C)c1ccc(-c2cc(-c3ccccc3O)nc(N)c2C#N)cc1NC(=O)CCN1CCCCC1
500 to 2000 nM

Please indicate IC50 recorded for N#Cc1c(-c2ccc(N3CCCC3)c(NC(=O)CCN3CCCCC3)c2)cc(-c2ccccc2O)nc1N [Example 3-1, hydrochloride]
500 to 2000 nM

Respond only with IC50 recorded for CN(C)[C@H]1CCN(c2ccc(-c3cc(-c4ccccc4O)nc(N)c3C#N)cc2NC(=O)CNCC2CC2)C1
< 500 nM

State its IC50: CN1CCN(C(=O)Nc2cccc(-c3cc(-c4ccccc4O)nc(N)c3C#N)c2)CC1
2000 to 10000 nM

---

Entries annotated with measured IC50
tested-system: human IKK-β (Homo sapiens, UniProt O14920)
Sequence (O14920 whole entry): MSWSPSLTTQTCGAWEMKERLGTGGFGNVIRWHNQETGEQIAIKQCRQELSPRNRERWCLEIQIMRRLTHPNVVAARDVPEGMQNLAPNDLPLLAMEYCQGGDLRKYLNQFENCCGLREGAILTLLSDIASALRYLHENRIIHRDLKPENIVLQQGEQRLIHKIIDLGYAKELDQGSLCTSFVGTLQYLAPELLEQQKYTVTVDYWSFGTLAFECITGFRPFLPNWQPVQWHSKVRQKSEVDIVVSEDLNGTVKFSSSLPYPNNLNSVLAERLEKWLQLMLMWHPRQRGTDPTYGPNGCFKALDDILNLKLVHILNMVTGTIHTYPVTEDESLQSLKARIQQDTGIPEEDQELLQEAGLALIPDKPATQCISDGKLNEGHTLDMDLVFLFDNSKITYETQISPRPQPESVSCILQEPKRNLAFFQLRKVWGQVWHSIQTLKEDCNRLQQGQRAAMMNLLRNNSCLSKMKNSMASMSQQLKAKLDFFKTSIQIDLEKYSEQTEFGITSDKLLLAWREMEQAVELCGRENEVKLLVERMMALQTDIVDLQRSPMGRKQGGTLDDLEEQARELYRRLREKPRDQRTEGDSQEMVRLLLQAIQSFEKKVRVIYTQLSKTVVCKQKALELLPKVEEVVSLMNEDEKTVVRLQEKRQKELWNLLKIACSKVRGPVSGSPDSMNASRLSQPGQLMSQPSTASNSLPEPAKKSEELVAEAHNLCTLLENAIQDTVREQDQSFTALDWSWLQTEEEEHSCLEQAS
Structures can show the parent of a compound that is named as a salt.

Here is how some compounds turned out for IC50.
[
  {
    "compound": "CCCNCC(=O)Nc1cccc(-c2cc(-c3ccccc3O)nc(N)c2C#N)c1 [Example 4-19]",
    "tested-system": "human IKK-β (Homo sapiens, UniProt O14920)",
    "measured": "500 to 2000 nM"
  },
  {
    "compound": "CC(C)C[C@H](N)C(=O)Nc1cc(-c2cc(-c3ccccc3O)nc(N)c2C#N)ccc1N(C)Cc1ccccc1 [Example 3-15]",
    "tested-system": "human IKK-β (Homo sapiens, UniProt O14920)",
    "measured": "2000 to 10000 nM"
  },
  {
    "compound": "CC(=O)Nc1cccc(-c2cc(-c3ccccc3O)nc(N)c2C#N)c1 [Example 1-14]",
    "tested-system": "human IKK-β (Homo sapiens, UniProt O14920)",
    "measured": "> 10000 nM"
  },
  {
    "compound": "CC(=O)Nc1ccc(-c2cc(-c3c(O)cccc3OCC3CC3)nc(N)c2CO)cc1O [Example 8-3, hydrochloride]",
    "tested-system": "human IKK-β (Homo sapiens, UniProt O14920)",
    "measured": "< 500 nM"
  }
]

// output IC50; input N#Cc1c(-c2ccc(N3CCCCC3)c(NC(=O)CCN)c2)cc(-c2ccccc2O)nc1N [Example 3-03] ; system human IKK-β (Homo sapiens, UniProt O14920)
< 500 nM

State IC50 on human IKK-β (Homo sapiens, UniProt O14920). Entry: CCN1CCC(N(CC)CCC(=O)Nc2cccc(-c3cc(-c4ccccc4O)nc(N)c3C#N)c2)C1 (centres unmarked) [Example 4-16]
500 to 2000 nM

Report IC50 from human IKK-β (Homo sapiens, UniProt O14920) testing of Nc1nc(-c2ccccc2O)cc(-c2cccc(NC(=O)CCN3CCCCC3)c2)c1CO [Example 7-3]
500 to 2000 nM

Report measured IC50 on human IKK-β (Homo sapiens, UniProt O14920); entry: N#Cc1c(-c2cccc(NC(=O)CNCC3CC3)c2)cc(-c2ccccc2O)nc1N [Example 4-18]
< 500 nM

GET IC50 where system = human IKK-β (Homo sapiens, UniProt O14920) and item = N#Cc1c(-c2cccc(NC(=O)C[C@H](N)C(=O)O)c2)cc(-c2ccccc2O)nc1N [Example 1-09]
< 500 nM

Enter measured IC50, system human IKK-β (Homo sapiens, UniProt O14920), for the compound shown: N#Cc1c(-c2cccc(NC(=O)CN3CCN(C(=O)c4ccco4)CC3)c2)cc(-c2ccccc2O)nc1N [Example 4-03]
2000 to 10000 nM

GET IC50 | system: human IKK-β (Homo sapiens, UniProt O14920) | item: CC(=O)Nc1ccc(-c2cc(-c3ccccc3O)nc(N)c2CO)cc1O [Example 8-05]
< 500 nM
